test system: CCRIS mutagenicity, Ames/micronucleus/aberration tests; assay: CCRIS mutagenicity studies; details: Test System: Ames Salmonella typhimurium; Strain/Indicator: TA98; Metabolic Activation: None; Method: Preincubation
Calls of active or inactive are those of the source. The rule behind the calls is not given here.
Outcomes: TRUE for active, FALSE for inactive

• OCc1c2ccccc2cc2ccccc12 = FALSE
• O=C(O)c1ccccc1C(=O)O = FALSE
• ClCCCl = FALSE
• O=C(O)C(Cl)Br (stereo not given) = FALSE
• C=CC(=O)OCCO = FALSE
• Nc1cccc(N)c1 = FALSE
• CCCCC(CC)COC(=O)CCCCCCCCC(=O)OCC(CC)CCCC (stereo not given) = FALSE
• CC(=O)OCC(COC(C)=O)OC(C)=O = FALSE
• O=[N+]([O-])NC1=NCCN1Cc1ccc(Cl)nc1 = TRUE
• NCCS = FALSE
• O=C(Cl)c1ccc(Cl)cc1Cl = FALSE
• N#CC(Br)Br = FALSE
• CCOC(=O)NCCOc1ccc(Oc2ccccc2)cc1 = FALSE
• O=C(O)c1ccc(Cl)cc1Cl = FALSE
• CCN(CC)N=O = TRUE
